The measurements presented in this section are drawn from paper PMC9482650.

- TARGET_ENTITY: FRMPD4, Q14CM0
- Sequence (Q14CM0 67-160): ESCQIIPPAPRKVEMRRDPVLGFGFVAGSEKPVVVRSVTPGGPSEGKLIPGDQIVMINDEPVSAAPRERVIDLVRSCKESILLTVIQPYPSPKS
- MEASUREMENT_DESCRIPTION: holdup assay
- Set-up: key: below the threshold = too weak to quantify, mostly under pKd 3.1 to 4
- SETTINGS: plain residues with an end cap or a label only (N-terminal biotin on a linker: ado-ado)
PROPERTY_MEASURED: pKd

For orientation, consider the following solved cases.
{"columns": ["BINDER", "RESULT"],
 "data": [
  ["TKGPRGPTRV [SAPCD1, Q5SSQ6]", "below the threshold"],
  ["DDENIRTSDV [PLEKHA2, Q9HB19]", "below the threshold"],
  ["RHGSCVETSL [TMEM151B, Q8IW70]", 4.51],
  ["LKVPPEERLI [CRB2, Q5IJ48]", "below the threshold"],
  ["QSARLWETSI [ADAM22, Q9P0K1]", "below the threshold"]
]}

Turning now to a further binder:
*Q* Need pKd, item QPCFNKLFPL [LPXN, O60711]
*A* 4.64
